tested.target: T. brucei AdoMetDC/prozyme (Trypanosoma brucei brucei, UniProt P50244)
Sequence (P50244 86-370 limits assumed): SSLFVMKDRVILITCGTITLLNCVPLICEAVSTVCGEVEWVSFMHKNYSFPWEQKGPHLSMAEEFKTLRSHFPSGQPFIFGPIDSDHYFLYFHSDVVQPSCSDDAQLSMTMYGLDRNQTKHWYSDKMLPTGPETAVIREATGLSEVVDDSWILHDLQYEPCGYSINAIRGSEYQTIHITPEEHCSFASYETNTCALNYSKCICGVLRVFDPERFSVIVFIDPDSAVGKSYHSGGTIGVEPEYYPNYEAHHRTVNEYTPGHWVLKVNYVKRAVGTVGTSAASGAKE
experiment.summary: biochemical
experimental.parameters: Tb IC50, pH 7.2; mean, triplicate, 95% CI in parentheses
quantity.measured: pIC50
Would you please state pIC50, meaning minus log10 of the concentration in mol/L, as a bare number?

Any idea what its pIC50 is? The compound is Nc1cc(Nc2cc(Cl)cc(Cl)c2)ccn1 [Compound 21]
4.54
